Read-out: Ezrin (EZR), EZR (gene 7430)
Test: LTEA_HepaRG_EZR: Life Technologies and Expression Analysis (LTEA) Assay for Ezrin (EZR) using HepaRG (AID 2283491)
Settings: mRNA level, 48 h; actives raise or lower the signal
Activity calls are given as the source filed them. How the source made its calls: active means hit-call score of the fitted dose curve at least 0.9, where 1 is the maximum; inactive means score below 0.9.

>  <smiles.code>
Brc1ccc(Oc2ccccc2)cc1

>  <outcome>
inactive

$$$$
>  <smiles.code>
CCN(CC)CCO

>  <outcome>
inactive

$$$$
>  <smiles.code>
O=C1CCCO1

>  <outcome>
inactive

$$$$

----------
Read-out: Pselectin, SELP (gene 6403)
Test: BSK_4H_Pselectin: BioMAP Diversity Plus: 4H Assay for Pselectin Biomarker Activity (AID 2283026)
Settings: primary human endothelial cells (HUVEC); actives raise or lower the signal
Calls of active or inactive are those of the source. How the source made its calls: active means hit-call score of the fitted dose curve at least 0.9, where 1 is the maximum; inactive means score below 0.9.
Please reply with one of these outcomes: active, inactive

Recorded results for 3 molecules are shown here.
>  <smiles.code>
CN(C)c1ccccc1

>  <cat>
inactive

$$$$
>  <smiles.code>
Cc1cc(N=Nc2ccccc2C)ccc1N

>  <cat>
active

$$$$
>  <smiles.code>
COC(=O)c1ccccc1N

>  <cat>
inactive

$$$$

# outcome recorded in this test, key = Brc1ccc(Oc2ccccc2)cc1
inactive

# outcome recorded in this test, key = O=C(Oc1ccc(Br)cc1)N1CCN2CCC1CC2
inactive

# outcome recorded in this test, key = O=C(Nc1ccccc1)c1ccccc1I
inactive

# outcome recorded in this test, key = Nc1ccc(Oc2ccc(N)cc2)cc1
inactive

# outcome recorded in this test, key = Cc1ccc(N)c(N)c1
inactive

# outcome recorded in this test, key = CCC12COCN1COC2
inactive

# outcome recorded in this test, key = Nc1cc(Cl)cc(C(=O)O)c1Cl
inactive
